- Tested on: NCI-H226
- ASSAY_DETAILS: NCI tumour cell line growth inhibition, 48 h
Active and inactive are the calls of the source. Rule as the data show it: active = GI50 up to about 1.1 µM and inactive = higher.
VALUE_KIND: GI50

C[Si](C)(C)CNC(=O)OCc1ccccc1; 66.4 µM (inactive)
O=C1C[C@@H]2[C@@H](CCC23CCCC3)N1; > 100 µM (inactive)
NC(=O)c1cnc2sc3ccccc3n2c1=O; 34.5 µM (inactive)
COC(=O)C1=C(C(=O)OC)C2OC1c1cc3ccccc3cc12; 5.15 µM (inactive)
CSc1ccc2c(cc1=O)[C@@H](NC(=O)c1ccc(Cl)cc1)CCc1cc(O)c(O)c(O)c1-2; > 100 µM (inactive)
COC(=O)C1OC(O[C@H]2CC[C@]3(C)[C@H]4CC=C5[C@@H]6CC(C)(C)CC[C@]6(C(=O)OC)[C@H](O)C[C@@]5(C)[C@]4(C)CC[C@H]3C2(C)C)C(O)C(O)C1O (some centres undefined); 15 µM (inactive)
CCOC(=O)C(NC(=O)c1ccccc1)(Nc1cc(C)on1)C(F)(F)F (centres undefined); > 100 µM (inactive)
CC(C)N(C(=O)C12C3C4C1C1C4(C#N)C3C12C#N)C(C)C (centres undefined); > 100 µM (inactive)

Here is another molecule to look at.
Report GI50 for CC(=O)O[C@H]1CCn2c3c(c(C)c21)C(=O)C(N1CC1)=C(C)C3=O please.
> 10 µM (inactive)

----------
- Tested on: Hs-578T
- ASSAY_DETAILS: NCI tumour cell line growth inhibition, 48 h
Calls of active or inactive are those of the source. Rule as the data show it: active = GI50 up to about 1.1 µM and inactive = higher.
Classes to choose from: label 1 = active, label 0 = inactive

Cc1[nH]nc(C(=O)N/N=C/c2cccs2)c1/N=N\N(C)C; label 0
COc1cc(C2SCC(=O)N2c2ccc(NC(C)=O)cc2)cc(OC)c1OC (stereo not given); label 0

Below: the item to evaluate.
Which outcome did this test record for the compound C/C(=N\NC(=S)NC(C)(C)C)c1ccccn1 ?
label 0

----------
Listed compounds paired with reported GI50
- Tested on: HCT-116
- ASSAY_DETAILS: NCI tumour cell line growth inhibition, 48 h
Active and inactive are the calls of the source. Rule as the data show it: active = GI50 up to about 1.1 µM and inactive = higher.

Worked examples, 3 compounds total:
COC(=O)c1cc2c(cc1O)[C@@H](NC(C)=O)CCc1cc(OC)c(OC)c(OC)c1-2; 0.0274 µM (active)
Cc1cc(=O)nc(S(=O)(=O)NC(=O)Nc2cccc(Cl)c2)[nH]1; > 100 µM (inactive)
O=S1(=O)NN=C(NCc2ccc(Cl)cc2)c2ccccc21; > 100 µM (inactive)

Report GI50 for O=[N+]([O-])c1cc2ccc(N(CCO)CCO)nc2nc1N(CCO)CCO please.
> 100 µM (inactive)

Please give the result for CO/N=C1\CCC2(O)C3Cc4ccc(O)c5c4C2(CCN3CC2CC2)[C@H]1O5 (stereo not given in full) too.
> 100 µM (inactive)

Please give the result for CCOC(=O)CC/C(C)=N\n1c(Cc2ccc(Cl)cc2)n[nH]c1=O too.
> 100 µM (inactive)

Please give the result for Cc1cc2c(cc1C)[n+]([O-])c(C(=O)CC(=O)C(=O)Nc1ccccc1C)c(C)[n+]2[O-] too.
> 100 µM (inactive)

----------
- System: CCRF-CEM
- ASSAY_DETAILS: NCI tumour cell line growth inhibition, 48 h
Active and inactive are the calls of the source. Cut-off read from the data, not from the text of the source: active = GI50 up to about 1.1 µM and inactive = higher.
Classes to choose from: active, inactive

Which outcome did this test record for the molecule C=C1C(=O)O[C@@H]2C[C@@]3(C)CCCC(=C)[C@@H]3C[C@H]12.C=C1C(=O)O[C@@H]2C[C@@]3(C)CCC[C@H](C)C3=C[C@H]12 ?
inactive

Please give the result for N#C/C(N)=C(C#N)/N=C/N too.
inactive

Please give the result for C=C1CCC2[C@@H](CCC3[C@]2(C)CCC[C@]3(C)C(=O)OC)C1CC=O (stereo partly specified) too.
inactive

Data provenance is ChEMBL document CHEMBL1201862.
